Some compounds, each annotated with its measured pIC50.
Tested on: NAMPT (Homo sapiens (Human))
Sequence (P43490 whole entry): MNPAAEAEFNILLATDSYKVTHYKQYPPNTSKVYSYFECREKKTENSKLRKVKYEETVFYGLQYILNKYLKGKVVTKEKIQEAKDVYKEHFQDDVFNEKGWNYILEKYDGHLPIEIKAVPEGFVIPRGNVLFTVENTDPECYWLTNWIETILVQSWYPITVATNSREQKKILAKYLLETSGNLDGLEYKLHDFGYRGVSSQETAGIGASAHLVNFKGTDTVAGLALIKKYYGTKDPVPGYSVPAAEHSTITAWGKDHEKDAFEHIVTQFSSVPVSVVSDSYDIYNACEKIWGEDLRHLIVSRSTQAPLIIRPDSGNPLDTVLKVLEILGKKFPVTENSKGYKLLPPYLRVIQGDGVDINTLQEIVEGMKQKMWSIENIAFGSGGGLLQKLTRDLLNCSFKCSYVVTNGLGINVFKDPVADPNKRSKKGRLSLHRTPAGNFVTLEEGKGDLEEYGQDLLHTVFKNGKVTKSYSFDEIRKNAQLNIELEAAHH
Assay details: NAMPT biochemical inhibition assay (NMN quantified by mass spectrometry)
Setup conditions: NAMPT biochemical inhibition; read-out: Biochem IC50
# pIC50 is unitless: minus log10 of the molar concentration; print number only

[
  {
    "Molecule smiles": "CCN(CC)C(=O)c1cc(F)cc(S(=O)(=O)c2ccc(NC(=O)NCc3cccnc3)cc2)c1",
    "pIC50": 8.92
  },
  {
    "Molecule smiles": "CS(=O)(=O)c1ccc(S(=O)(=O)c2ccc(NC(=O)NCc3cccnc3)cc2)cc1",
    "pIC50": 8.70
  },
  {
    "Molecule smiles": "O=C(NCc1cccnc1)Nc1ccc(S(=O)(=O)N2CCN(c3ncccc3Cl)CC2)cc1",
    "pIC50": 9.00
  },
  {
    "Molecule smiles": "O=C(NCc1cccnc1)Nc1ccc(S(=O)(=O)Nc2ccccc2N2CCCC2)cc1",
    "pIC50": 7.89
  }
]

GET /values?readout=pIC50&item= O=C(NCc1cccnc1)Nc1ccc(S(=O)(=O)N2CCN(CC(=O)N3CCCCC3)CC2)cc1 8.05

GET /values?readout=pIC50&item= COc1cc(F)c(S(=O)(=O)c2ccc(NC(=O)NCc3cccnc3)cc2)cc1F 8.40

GET /values?readout=pIC50&item= CCc1ccc(CN(C)S(=O)(=O)c2ccc(NC(=O)NCc3cccnc3)cc2)nc1 8.30

GET /values?readout=pIC50&item= O=C(NCc1ccc(Cl)nc1)Nc1ccc(S(=O)(=O)N2CCCCC2)cc1 8.10

GET /values?readout=pIC50&item= O=C(Nc1cccnc1)c1ccc(S(=O)(=O)c2ccccc2)cc1 5.72

GET /values?readout=pIC50&item= O=C(NCc1cncc(Cl)c1)Nc1ccc(S(=O)(=O)N2CCCCC2)cc1 7.32

###

Tested on: NAMPT (Homo sapiens (Human))
Assay details: NAMPT biochemical inhibition assay (NMN quantified by mass spectrometry)
Setup conditions: NAMPT biochemical inhibition; read-out: Biochem IC50
Some compounds, each annotated with its measured pIC50.
# pIC50 is unitless: minus log10 of the molar concentration; print number only

[
  {
    "Compound": "O=C(NCc1cccnc1)Nc1ccc(S(=O)(=O)c2ccc(F)c(C(F)(F)F)c2)cc1",
    "pIC50": 8.82
  },
  {
    "Compound": "O=C(NCc1cccnc1)Nc1ccc(S(=O)(=O)N2CC3CCC2C3)cc1 (stereo not shown)",
    "pIC50": 8.00
  }
]

Hello, I am looking for reported pIC50 with NAMPT (Homo sapiens (Human)) for O=C(NCc1cccnc1)Nc1ccc(S(=O)(=O)c2cncc(Cl)c2)cc1 . Could you help? 8.59

Hello, I am looking for reported pIC50 with NAMPT (Homo sapiens (Human)) for Cc1cc(F)ccc1S(=O)(=O)c1ccc(NC(=O)NCc2cccnc2)cc1 . Could you help? 8.30

Hello, I am looking for reported pIC50 with NAMPT (Homo sapiens (Human)) for O=C(NCc1cccnc1)Nc1ccc(S(=O)(=O)c2cccc3c2oc2ccccc23)cc1 . Could you help? 8.70

Hello, I am looking for reported pIC50 with NAMPT (Homo sapiens (Human)) for CC(C)c1cccc(S(=O)(=O)c2ccc(NC(=O)NCc3cccnc3)cc2)c1 . Could you help? 8.70

Hello, I am looking for reported pIC50 with NAMPT (Homo sapiens (Human)) for CCOc1ccccc1S(=O)(=O)c1ccc(NC(=O)NCc2cccnc2)cc1 . Could you help? 8.70

Hello, I am looking for reported pIC50 with NAMPT (Homo sapiens (Human)) for CCNC(=O)c1cccc(S(=O)(=O)c2ccc(NC(=O)NCc3cccnc3)cc2)c1 . Could you help? 8.17

Hello, I am looking for reported pIC50 with NAMPT (Homo sapiens (Human)) for Cc1ccc(F)c(S(=O)(=O)c2ccc(NC(=O)NCc3cccnc3)cc2)c1Cl . Could you help? 8.15

Hello, I am looking for reported pIC50 with NAMPT (Homo sapiens (Human)) for O=C(NCc1ccc2nccn2c1)c1ccc(S(=O)(=O)Nc2cccc(Cl)c2)cc1 . Could you help? 6.86
